target: T1, Anti-CD28 Fab (SEQ ID NOs: 696, 697)
T1 construct: In the phage ELISA the Fab was biotinylated and captured on neutravidin coated plates
T1 sequence (VH, as listed by the source, chain 1 of 2): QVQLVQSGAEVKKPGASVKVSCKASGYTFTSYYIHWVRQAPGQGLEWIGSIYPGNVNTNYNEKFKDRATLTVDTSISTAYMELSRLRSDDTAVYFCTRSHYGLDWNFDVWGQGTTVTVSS
T1 sequence (VL, as listed by the source, chain 2 of 2): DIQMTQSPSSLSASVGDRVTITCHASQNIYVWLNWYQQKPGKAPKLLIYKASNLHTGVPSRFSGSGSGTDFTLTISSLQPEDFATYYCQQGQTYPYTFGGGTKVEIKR
protocol: phage binding ELISA on plate-captured Fab, competitor CD28 antigen
Where no end group is shown, it is not given here.
Reported Anti-CD28 Fab signal in the presence of CD28 values follow for various binders
Number, no unit, nothing else.

Answered examples (2):
DCWWMFESYPGRCI (cysteine pairing not given here; also: displayed on phage, fused to pIII, Clonal phage supernatant; not shown: bacteriophage pIII to which the peptide is fused for display) [Phage-465] | 0.07
ECHWSMWAVGHACF (cysteine pairing not given here; also: displayed on phage, fused to pIII, Clonal phage supernatant; not shown: bacteriophage pIII to which the peptide is fused for display) [Phage-462] | 0.07

API: the following record is the query input.
Exercise: Annotate the binder WECLKYTEANACTY (Clonal phage supernatant; not shown: bacteriophage pIII to which the peptide is fused for display) [Phage-455] with its measured Anti-CD28 Fab signal in the presence of CD28.
Key: 0.07

The reported measurements were obtained from patent US20260242478A1.
